protocolNotes: NCI Yeast Anticancer Drug Screen. Data for the cln2 rad14 strain (AID 165);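 also: 0% = growth equal to vehicle treated cultures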
settings: S. cerevisiae cln2 rad14 strain, at 5.0 µM (retest, dose inferred, filed as 0.5), active compounds read high
About 79,000 compounds went through this panel and 15% of them were active in at least one assay; those are over-represented in the sample as a whole.
Would you mind telling me the reported growth inhibition of each entry?
One number for each entry, in %.

List reported growth inhibition for each of these compounds:
1. O=C1c2ccccc2C(=O)c2cc(CBr)ccc21
2. CN=C(N)N/N=C/c1ccc2c(c1)Cc1ccccc1-2
3. OC(COc1cccc2ccccc12)CN1CCOCC1 (centres undefined)
4. CCN(CC)CC[n+]1ccc2c(C)c3[nH]c4ccc(O)cc4c3c(C)c2c1
5. Cn1c2ccccc2c(=O)c2cc(NC(=O)CCCCC(=O)Nc3ccc4c(c3)c(=O)c3ccccc3n4C)ccc21

(A)
[33, -5, 14, -2, -1]

List reported growth inhibition for each of these compounds:
1. c1ccc(-c2nc3cccnc3s2)cc1
2. CCN(CC)C(=S)N/N=C(/C)c1cccc(/C(C)=N\NC(=S)N(CC)CC)n1
3. Cc1ccc(-c2ccc(Nc3c4ccccc4nc4ccccc34)cc2)cn1
4. CC(=O)SCCC[Si](C)(C)CCCSC(C)=O

(A)
[-25, 21, 37, -6]

List reported growth inhibition for each of these compounds:
1. CC1(Cl)CC(O)C2(CC1Br)C1(C)OC1C1OC1(Br)C2(C)C (centres undefined)
2. [N-]=N[N+]#I1OC(C(F)(F)F)(C(F)(F)F)c2ccccc21
3. CCCC/C=C/C(CC)(C(=O)OCC)C(=O)OCC
4. O=C(O)C1CCCCC1c1c2ccc(=O)c(O)c-2oc2c(O)c(O)ccc12 (centres undefined)
5. CCCN(CCC)CC(O)c1cc(-c2ccc(Cl)cc2)nc2c(C)c(Cl)ccc12 (centres undefined)

(A)
1. 33
2. 47
3. 6
4. -21
5. 9

List reported growth inhibition for each of these compounds:
1. O=C(O)c1ccccc1NC(=S)c1ccccc1
2. O=C1C=CC(=C(c2ccccc2)c2ccccc2)c2ccccc21
3. CCN(CC)CCNc1ccc([N+](=O)[O-])c2nc3ccc(OC)cc3c(N)c12
4. O=C1C(Nc2ccccc2)=C(Oc2ccccc2)C(=O)c2ccccc21

(A)
1. 27
2. 25
3. 3
4. -7

---

Would you mind telling me the reported growth inhibition of each entry?
protocolNotes: NCI Yeast Anticancer Drug Screen. Data for the bub3 strain (AID 167)
settings: S. cerevisiae bub3 mutant strain, at 100.0 µM, active compounds read high
This is part of a sample that, as a whole, favours compounds with a hit. Of some 79,000 tested, about 15% had one in any assay.
Answers are plain numbers, in %.

> print(dat)
                                   molecule  scaleunit  observedvalue
1  CC/C(=C(\c1ccccc1)c1ccc(OCCN(C)C)cc1)c1ccccc1          %             98
2              O=[N+]([O-])c1cc(CCl)ccc1CCl          %             97

List reported growth inhibition for each of these molecules:
1. COc1cc(CC2CC(c3ccc4c(c3)OCO4)OC2=O)cc(OC)c1OC (stereo unspecified)
2. NC(=O)NN=C(CS)CS
3. CC(C)NC(=O)OCc1c(COC(=O)NC(C)C)c(-c2ccc(Cl)c(Cl)c2)n2c1CCC2
4. O=C(O)C1CCCCC1c1c2ccc(=O)c(O)c-2oc2c(O)c(O)ccc12 (stereo unspecified)
5. CN1c2ccc(Cl)cc2C(=O)NC1c1ccc([N+](=O)[O-])s1 (stereo unspecified)
6. COc1cc(C(=O)/C=C/c2ccccc2O)ccc1O
7. CC(C(=O)N1C(=O)N(C(=O)[C@H](C)C(O)c2ccccc2)[C@H](c2ccccc2)[C@H]1c1ccccc1)[C@@H](O)c1ccccc1 (stereo partly specified)

(A)
82
56
63
86
97
98
48

List reported growth inhibition for each of these molecules:
1. CC1=C(C)Cc2c(O)ccc(O)c2C1
2. O=[N+]([O-])c1ccc(=S)[nH]c1

(A)
[63, 98]

---

protocolNotes: NCI Yeast Anticancer Drug Screen. Data for the bub3 strain (AID 167)
settings: S. cerevisiae bub3 mutant strain, at 3.7 µM, active compounds read high
About 79,000 compounds went through this panel and 15% of them were active in at least one assay; those are over-represented in the sample as a whole.
Would you mind telling me the reported growth inhibition of each entry?
Give bare numbers, in %.

Examples with answers:
> print(dat)
                                    molecule            readout  observedvalue
 1  CCCCOC(=O)N[C@H]1CCc2cc(OC)c(OC)c(OC)c2-c2ccc(SC)c(=O)cc21  growth inhibition             -8
 2  CCC#CCCCOC(=O)c1cc([N+](=O)[O-])cc([N+](=O)[O-])c1  growth inhibition             -7
 3        Cc1ccc(CCC2=CCCc3c2ccc2ccccc32)cc1  growth inhibition             -2
 4  O=C1C(Nc2ccccc2)=C(Oc2ccccc2)C(=O)c2ccccc21  growth inhibition              9
 5          COc1cc(C(=O)/C=C/c2ccccc2O)ccc1O  growth inhibition             53
 6  O=C1OC(=O)C2CCCC3CCCC1C32 (stereo unspecified)  growth inhibition             66
 7  CN1c2ccc(Cl)cc2C(=O)NC1c1ccc([N+](=O)[O-])s1 (stereo unspecified)  growth inhibition              2
 8              O=C1c2ccccc2-c2nc3ccccc3nc21  growth inhibition            -13
 9  COc1cc(C2c3cc4c(cc3OC(NNc3ccccc3)C2C)OCO4)cc(OC)c1OC (stereo unspecified)  growth inhibition             20
10  Cc1c(C(=O)C(=O)c2ccccc2)c(C)c(C(=O)C(=O)c2ccccc2)c(C)c1C(=O)C(=O)c1ccccc1  growth inhibition              0

List reported growth inhibition for each of these molecules:
1. O=C(c1cc(Br)ccc1O)c1cc(Br)ccc1O
2. O=C(/C=C\c1ccc(Cl)cc1Cl)c1cccs1
3. C[Si](C)(C)CNC(=O)OCc1ccccc1
4. Cc1ccc(S(=O)(=O)NC(=O)NC2=NC(C)(C)N(c3ccc(Cl)c(Cl)c3)C(N)=N2)cc1
5. CCOC(=O)C1=C(C(=O)c2ccccc2)C(c2ccccc2[N+](=O)[O-])C(C(=O)c2ccccc2)=C(C(=O)OCC)N1
6. O=[n+]1c2ccc(Cl)cc2n([O-])c2ccc(Cl)cc21

(A)
1: 90; 2: 22; 3: 15; 4: -7; 5: 8; 6: 0

---

protocolNotes: NCI Yeast Anticancer Drug Screen. Data for the wt2 strain (AID 169);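 also: 0% = growth of vehicle-treated yeast cultures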
settings: S. cerevisiae wt2 strain growth inhibition; at 1.2 µM; active compounds read high
Method: Growth inhibition of yeast strains with defined genetic alterations is measured as a screen for potential anti-cancer activity. Selected strains with alterations in DNA damage repair or cell cycle control were exposed to compounds and growth inhibition was measured relative to vehicle treated controls. The strain used in this assay is wt2
About 79,000 compounds went through this panel and 15% of them were active in at least one assay; those are over-represented in the sample as a whole. Calls of active or inactive are those of the source. Rule as the data show it: active = growth inhibition above about 70%; inactive = the rest.
Would you mind telling me the reported growth inhibition of each entry?

Examples with answers:
> print(dat)
                                   molecule            readout   observedvalue
1  COc1cc(C2SCC(=O)N2c2ccc(-c3ccc(-n4c(-c5ccccc5)nc5ccccc5c4=O)cc3)cc2)cc(OC)c1OC (stereo unspecified)  growth inhibition  -1% (inactive)
2                       CSC(=S)Nc1cc(C)ccn1  growth inhibition  -7% (inactive)
3            CN(C)c1nc2sc3c(c2c(=O)o1)CCCC3  growth inhibition  -1% (inactive)
4  Cc1ccc2[nH]c3c(C)c4cc[n+](C)cc4c(C)c3c2c1  growth inhibition   3% (inactive)
5  C/C(=N\O)C1CC2C=C(C#N)C1N(Cc1ccccc1)C2 (stereo unspecified)  growth inhibition  -1% (inactive)

// next item, growth inhibition requested
(Q) Output growth inhibition of Nc1ccccc1CC(O)C(=O)O (stereo unspecified)
(A) 2% (inactive)

---

protocolNotes: NCI Yeast Anticancer Drug Screen. Data for the rad52 strain (AID 147);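 also: 0% = growth of vehicle-treated control cultures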
settings: S. cerevisiae rad52 mutant growth inhibition; at 33.0 µM; active compounds read high
The panel holds about 79,000 compounds, 15% with a hit somewhere; the sample as a whole holds those more often.
Would you mind telling me the reported growth inhibition of each entry?
Answers are plain numbers, in %.

Examples with answers:
> print(dat)
                                   compound            readout  observedvalue
1           CCC/C(Cl)=N\OC(=O)Nc1ccc(Br)cc1  growth inhibition             98
2  COc1cc(CC2CC(c3ccc4c(c3)OCO4)OC2=O)cc(OC)c1OC (stereo unspecified)  growth inhibition              3
3  N#CC(C(=O)Nc1ccccc1)C1=C(Cl)C(=O)c2ccccc2C1=O (stereo unspecified)  growth inhibition             98
4           O=Nc1c(NO)ccc2nn(-c3ccccc3)nc12  growth inhibition             98

List reported growth inhibition for each of these compounds:
1. CCCCCCCCCCCCCCCCCCN(C)CC(COP(=O)([O-])OCC[N+](C)(C)C)OC (stereo unspecified)
2. O=C1C(=O)c2ccccc2C=C1[N+](=O)[O-]

(A)
1. 98
2. 70
